target: human proteinase 3 (Homo sapiens, UniProt P24158); construct: purchased Elastin Products Company, USA; assay: Inhibition of human proteinase 3 (Boc-Ala-Ala-Nva-SBzl); type: biochemical; conditions: 10 nM enzyme, 1 mM substrate, 37° C., pH7.4; read-out: Human proteinase 3 (hPr3) IC50
Sequence (P24158 28-248): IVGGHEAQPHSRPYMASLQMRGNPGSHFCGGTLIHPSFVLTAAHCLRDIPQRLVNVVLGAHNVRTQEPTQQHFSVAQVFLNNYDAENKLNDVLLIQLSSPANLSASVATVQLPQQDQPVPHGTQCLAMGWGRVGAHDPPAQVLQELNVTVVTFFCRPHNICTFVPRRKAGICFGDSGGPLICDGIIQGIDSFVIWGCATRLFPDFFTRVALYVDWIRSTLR
Non-standard residues stand in square brackets, D forms with d. Residues, ends and D or L forms follow the SMILES beside them. Gly(octyl) = CCCCCCCC[C@H](N)C(=O)O
observed property: IC50 (nM)
# number only, unit nM dropped from output

The cases that follow already have their IC50 on record.
compound	quantity unit	IC50
CCCCCCCC[C@@H]1NC(=O)[C@@H]2CCCN2C(=O)[C@H]2CCCN2C(=O)[C@H]([C@@H](C)O)NC(=O)[C@H](CCCCN)NC(=O)[C@H](CCC(N)=O)NC(=O)[C@@H]2CCCN2C(=O)[C@@H]2CCCN2C(=O)[C@H]([C@@H](C)CC)NC(=O)[C@H](CO)NC(=O)[C@H](C)NC(=O)[C@H]([C@@H](C)O)NC(=O)[C@H](CCC(=O)O)NC1=O [Example 4] (cyclo([Gly(octyl)]ETASIPPQKT[dP]P))	nM	2150
CCCCCCCC[C@@H]1NC(=O)[C@@H]2CCCN2C(=O)[C@H]2CCCN2C(=O)[C@H]([C@@H](C)O)NC(=O)[C@H](CCCCN)NC(=O)[C@H](Cc2ccc(O)cc2)NC(=O)[C@@H]2CCCN2C(=O)[C@@H]2CCCN2C(=O)[C@H]([C@@H](C)CC)NC(=O)[C@H](CO)NC(=O)[C@H](C)NC(=O)[C@H]([C@@H](C)O)NC(=O)[C@H](CCC(=O)O)NC1=O [Example 2] (cyclo([Gly(octyl)]ETASIPPYKT[dP]P))	nM	1520

Kindly consider the entry below.
Given item CC[C@H](C)[C@@H]1NC(=O)[C@H](CO)NC(=O)[C@H](C)NC(=O)[C@H]([C@@H](C)O)NC(=O)[C@H](C(C)C)NC(=O)[C@H](CCCNC(=N)N)NC(=O)[C@@H]2CCCN2C(=O)[C@H]2CCCN2C(=O)[C@H](Cc2ccc(O)cc2)NC(=O)[C@H](CCCCN)NC(=O)[C@H](CCC(N)=O)NC(=O)[C@@H]2CCCN2C(=O)[C@@H]2CCCN2C1=O [Example 18] (cyclo(RVTASIPPQKY[dP]P)) , the value recorded as its IC50 is 1800
